Assign MIC to each entry below.
- Tested on: Candida albicans
- Experiment: Anti-fungal activity against Candida albicans assessed as inhibition of fungal growth
- Type: functional
- Conditions: Candida albicans; read-out: MIC
Give bare numbers, in µM.

Solved entries (count: 6):
INSERT INTO assay_data (compound, measured_endpoint, recorded_result) VALUES
  ('CCOC(=O)C1=C(CN2CCN(C(=O)/C(=N/OC)c3csc(N)n3)CC2)NC(=O)NC1c1cccs1 (stereo unspecified)', 'MIC', 480),
  ('CCOC(=O)C1=C(CN2CCN(C(=O)/C(=N/OC)c3csc(N)n3)CC2)NC(=O)NC1c1ccc(O)c(Br)c1 (stereo unspecified)', 'MIC', 415),
  ('CCCCc1nc(Cl)c(C2NC(=O)NC(CN3CCN(CC(=O)c4ccc(Cl)cc4)CC3)=C2C(=O)OCC)[nH]1 (stereo unspecified)', 'MIC', 444),
  ('CCCCc1nc(Cl)c(C2NC(=O)NC(CN3CCN(C(=O)/C(=N/OC)c4csc(N)n4)CC3)=C2C(=O)OCC)[nH]1 (stereo unspecified)', 'MIC', 422),
  ('CCCCc1nc(Cl)c(C2NC(=O)NC(CN3CCN(CC(=O)c4ccc(F)cc4)CC3)=C2C(=O)OCC)[nH]1 (stereo unspecified)', 'MIC', 457),
  ('CCOC(=O)C1=C(CN2CCN(C(=O)/C(=N/OC)c3csc(N)n3)CC2)NC(=O)NC1c1ccc(Cl)cc1Cl (stereo unspecified)', 'MIC', 449);

Please give MIC, item by item, for the list that follows.
1. CCOC(=O)C1=C(CN2CCN(C(=O)/C(=N/OC)c3csc(N)n3)CC2)NC(=O)NC1c1ccc(F)cc1F (stereo unspecified)
2. OC(Cn1cncn1)(Cn1cncn1)c1ccc(F)cc1F [FLUCONAZOLE]
3. CCOC(=O)C1=C(CN2CCN(C(=O)/C(=N/OC)c3csc(N)n3)CC2)NC(=O)NC1c1cccc(O)c1 (stereo unspecified)
4. CCOC(=O)C1=C(CN2CCN(C(=O)/C(=N/OC)c3csc(N)n3)CC2)NC(=O)NC1c1ccc(O)c(OC)c1 (stereo unspecified)
5. CCOC(=O)C1=C(CN2CCN(C(=O)/C(=N/OC)c3csc(N)n3)CC2)NC(=O)NC1c1ccc(OC)cc1 (stereo unspecified)
6. CCOC(=O)C1=C(CN2CCN(C(=O)/C(=N/OC)c3csc(N)n3)CC2)NC(=O)NC1c1ccc(F)cc1 (stereo unspecified)
7. CCOC(=O)C1=C(CN2CCN(C(=O)/C(=N/OC)c3csc(N)n3)CC2)NC(=O)NC1c1ccc(N(C)C)cc1 (stereo unspecified)

Result:
464
13
430
444
470
447
412

Please give MIC, item by item, for the list that follows.
1. CCOC(=O)C1=C(CN2CCN(C(=O)/C(=N/OC)c3csc(N)n3)CC2)NC(=O)NC1c1ccc(C#N)cc1 (stereo unspecified)
2. CCCCc1nc(Cl)c(C2NC(=O)NC(CN3CCN(CC(O)c4nccs4)CC3)=C2C(=O)OCC)[nH]1 (stereo unspecified)
3. CCCCc1nc(Cl)c(C2NC(=O)NC(CN3CCN(CC(=O)c4nccs4)CC3)=C2C(=O)OCC)[nH]1 (stereo unspecified)

Result:
1. 460
2. 455
3. 466
